Ref: patent US7091220B2

Target: 5-HT transporter (Rattus norvegicus, UniProt P31652)
Construct: these vesicular particles were isolated from the pons and medulla oblongata region of the male rat brain; from tissue; host or cells: rat brain synaptosomes (P2 fraction) from pons and medulla oblongata of male rats
Sequence (P31652 whole entry): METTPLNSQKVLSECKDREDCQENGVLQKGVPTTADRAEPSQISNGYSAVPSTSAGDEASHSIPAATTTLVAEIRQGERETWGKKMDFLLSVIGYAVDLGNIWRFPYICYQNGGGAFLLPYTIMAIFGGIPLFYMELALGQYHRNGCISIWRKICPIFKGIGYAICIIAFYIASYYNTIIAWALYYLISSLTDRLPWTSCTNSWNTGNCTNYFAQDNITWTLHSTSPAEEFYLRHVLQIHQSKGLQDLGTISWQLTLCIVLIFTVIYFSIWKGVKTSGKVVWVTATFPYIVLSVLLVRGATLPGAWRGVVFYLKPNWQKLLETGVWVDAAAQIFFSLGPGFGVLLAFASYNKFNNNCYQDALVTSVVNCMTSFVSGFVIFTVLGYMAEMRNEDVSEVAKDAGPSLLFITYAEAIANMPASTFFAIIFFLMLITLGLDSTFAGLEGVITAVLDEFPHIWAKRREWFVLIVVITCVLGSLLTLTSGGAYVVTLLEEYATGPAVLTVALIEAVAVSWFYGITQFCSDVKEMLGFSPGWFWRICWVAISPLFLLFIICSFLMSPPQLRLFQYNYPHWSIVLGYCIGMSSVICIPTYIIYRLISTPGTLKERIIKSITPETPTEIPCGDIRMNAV
Assay: Inhibition of serotonin re-uptake (5-HT uptake inhibition) in rat brain synaptosomes
Type: biochemical
Details: rat brain synaptosomes (P2 fraction, pons and medulla oblongata); means from 2 parallel experiments; concentration not given
test_readout: Inhibition of 5HT uptake in % (%)
The reply should be a number in %, with the unit left off.

What value of Inhibition of 5HT uptake in % has been reported for the following compound? Cc1cccc2[nH]cc(C(c3ccc(F)cc3)N(C)C)c12 (stereo not shown)
41

What value of Inhibition of 5HT uptake in % has been reported for the following compound? COc1ccc(C(c2cn(C)c3ccccc23)N(C)C)cc1OC (stereo not shown)
42

What value of Inhibition of 5HT uptake in % has been reported for the following compound? CCc1cccc2c(C(c3ccccc3OC)N(C)C)c[nH]c12 (stereo not shown)
50

What value of Inhibition of 5HT uptake in % has been reported for the following compound? Cc1ccc(C(c2c(C)[nH]c3ccccc23)N(C)C)cc1 (stereo not shown)
78

What value of Inhibition of 5HT uptake in % has been reported for the following compound? CN(C)C(c1ccccc1C(F)(F)F)c1c[nH]c2ccc(Cl)cc12 (stereo not shown)
42

What value of Inhibition of 5HT uptake in % has been reported for the following compound? Cc1ccccc1C(c1c(C)[nH]c2ccccc12)N(C)C (stereo not shown)
62

What value of Inhibition of 5HT uptake in % has been reported for the following compound? Cc1cccc2[nH]cc(C(c3cccc(Oc4ccccc4)c3)N(C)C)c12 (stereo not shown)
41

What value of Inhibition of 5HT uptake in % has been reported for the following compound? Cc1[nH]c2ccccc2c1C(c1c(F)cccc1Cl)N(C)C (stereo not shown)
72

What value of Inhibition of 5HT uptake in % has been reported for the following compound? Cc1cccc(C(c2c[nH]c3ccc(Cl)cc23)N(C)C)c1 (stereo not shown)
46

What value of Inhibition of 5HT uptake in % has been reported for the following compound? CCc1cccc2c(C(c3ccccc3C)N(C)C)c[nH]c12 (stereo not shown)
45

* * *

Target: 5-HT transporter (Rattus norvegicus, UniProt P31652)
Construct: these vesicular particles were isolated from the pons and medulla oblongata region of the male rat brain; from tissue; host or cells: rat brain synaptosomes (P2 fraction) from pons and medulla oblongata of male rats
Assay: Inhibition of serotonin re-uptake (5-HT uptake inhibition) in rat brain synaptosomes
Assay type: biochemical
Details: rat brain synaptosomes (P2 fraction, pons and medulla oblongata); means from 2 parallel experiments; concentration not given
Please use y whenever Inhibition of 5HT uptake in % is not below 50%, and n whenever it is.

Textbook exercise: given the entry Cc1[nH]c2ccccc2c1C(c1ccc(F)cc1Cl)N(C)C (stereo not drawn) , state whether its Inhibition of 5HT uptake in % is greater than or equal to 50%.
n

Textbook exercise: given the entry COc1ccc(C(c2c(-c3ccc(F)cc3)[nH]c3ccccc23)N(C)C)cc1OC (stereo not drawn) , state whether its Inhibition of 5HT uptake in % is greater than or equal to 50%.
n

Textbook exercise: given the entry Cc1ccccc1C(c1cn(C)c2ccccc12)N(C)C (stereo not drawn) , state whether its Inhibition of 5HT uptake in % is greater than or equal to 50%.
n

Textbook exercise: given the entry NC(c1cccc(Oc2ccccc2)c1)c1c(-c2ccc(F)c(Cl)c2)[nH]c2ccccc12 (stereo not drawn) , state whether its Inhibition of 5HT uptake in % is greater than or equal to 50%.
n

Textbook exercise: given the entry CCn1c(-c2ccccc2)c(C(c2cccc(Oc3ccccc3)c2)N(C)C)c2ccccc21 (stereo not drawn) , state whether its Inhibition of 5HT uptake in % is greater than or equal to 50%.
y

Textbook exercise: given the entry Cc1ccc(C(c2c[nH]c3ccc(Cl)cc23)N(C)C)cc1 (stereo not drawn) , state whether its Inhibition of 5HT uptake in % is greater than or equal to 50%.
y

Textbook exercise: given the entry CCc1cccc2c(C(c3cccc(Oc4ccccc4)c3)N(C)C)c[nH]c12 (stereo not drawn) , state whether its Inhibition of 5HT uptake in % is greater than or equal to 50%.
y

Textbook exercise: given the entry CN(C)C(c1cccc(Oc2ccccc2)c1)c1c(-c2ccc(F)cc2)[nH]c2ccccc12 (stereo not drawn) , state whether its Inhibition of 5HT uptake in % is greater than or equal to 50%.
n

Textbook exercise: given the entry CCn1c(-c2ccccc2)c(C(c2ccc(C(C)(C)C)cc2)N(C)C)c2ccccc21 (stereo not drawn) , state whether its Inhibition of 5HT uptake in % is greater than or equal to 50%.
y

Textbook exercise: given the entry CN(C)C(c1ccccc1F)c1c[nH]c2ccc(Cl)cc12 (stereo not drawn) , state whether its Inhibition of 5HT uptake in % is greater than or equal to 50%.
n

Textbook exercise: given the entry Cc1[nH]c2ccccc2c1C(c1ccc(C(F)(F)F)cc1)N(C)C (stereo not drawn) , state whether its Inhibition of 5HT uptake in % is greater than or equal to 50%.
y

Textbook exercise: given the entry COc1ccccc1C(c1c(C)[nH]c2ccccc12)N(C)C (stereo not drawn) , state whether its Inhibition of 5HT uptake in % is greater than or equal to 50%.
n

Textbook exercise: given the entry COc1cccc(C(c2c(C(=O)O)[nH]c3ccc(O)cc23)N(C)C)c1OC (stereo not drawn) , state whether its Inhibition of 5HT uptake in % is greater than or equal to 50%.
n

Textbook exercise: given the entry Cc1[nH]c2ccccc2c1C(c1cccc(Oc2ccccc2)c1)N(C)C (stereo not drawn) , state whether its Inhibition of 5HT uptake in % is greater than or equal to 50%.
y

Textbook exercise: given the entry COc1ccc(C(c2c(-c3ccc(F)c(Cl)c3)[nH]c3ccccc23)N(C)C)cc1OC (stereo not drawn) , state whether its Inhibition of 5HT uptake in % is greater than or equal to 50%.
n

Textbook exercise: given the entry CN(C)C(c1cccc(Oc2ccccc2)c1)c1cn(C)c2ccccc12 (stereo not drawn) , state whether its Inhibition of 5HT uptake in % is greater than or equal to 50%.
y
